Molecular target: human CCR8 (human, UniProt P51685 1-355)
Sequence (P51685 whole entry): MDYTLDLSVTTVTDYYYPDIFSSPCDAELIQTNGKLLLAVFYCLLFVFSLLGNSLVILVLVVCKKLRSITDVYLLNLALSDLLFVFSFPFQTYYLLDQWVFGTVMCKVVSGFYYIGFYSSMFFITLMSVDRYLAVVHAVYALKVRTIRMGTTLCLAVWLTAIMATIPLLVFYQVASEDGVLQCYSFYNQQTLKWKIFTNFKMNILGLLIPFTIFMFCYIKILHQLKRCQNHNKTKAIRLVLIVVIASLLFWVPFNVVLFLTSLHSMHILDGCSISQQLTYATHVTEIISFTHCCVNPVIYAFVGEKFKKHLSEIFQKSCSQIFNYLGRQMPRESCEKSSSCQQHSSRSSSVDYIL
Assay: cell-based or functional assay
reported-metric: ADCC, Percent Non-Viable cells (EC50 pM), Donor 2
Reply numerically in pM, unit not repeated.

## Task Bench note: what ADCC, Percent Non-Viable cells (EC50 pM), Donor 2 did Antibody 4.0 IgG1 (antibody, V domains shown) VH: EVQLVESGGGLVKPGGSLRLSCAASGFIFSNAWMSWVRQAPGKGLEWVGRIKRKTDGGTTDYAAPVKGRFTISRDDSKNTLYLLMNSLKIEDTAVYYCTVVTLVRGIIFDYWGQGTLVTVSS VL: EIVLTQSPGTLSLSPGESATLSCRVSQSVSSSQLAWYQQKPGQAPRLLIYGASSRATGIPDRFSGSGSGTDFTLTISRLEPEDFAVYYCQQYGNSRTFGQGTKVEIKR show?
## Result 218

## Task Can you handle Antibody 6.0 IgG1 (antibody, V domains shown) VH: QVQLVESGGGVVQPGRSLRLSCEASGFTFSSYVMHWVRQAPGKGLEWVSVISYDGSSQYYTDSVKGRFTISRDNSKNTLNLQMNSLRAEDTAVYYCVRGRLATAILFDYWGQGTLVTVSS VL: DILMTQTPLSLSVTPGQPASISCKSSQSLLYSDGKTYLFWYLQRPGQPPQLLIYEVSNRFSGVPDRFSGSGSGTDFTLKISRVEAEDVGIYYCMQSIKLPLTFGGGTKVEIKR next?
## Result 37.4

## Task Can you handle Antibody 3.0 IgG1 (antibody, V domains shown) VH: EVQLVESGGGLVKPGGSLRLSCAASGFIFSNAWMSWVRQAPGKGLEWVARIKRRTDGGTTDYAAPVKDRFTISRDDSKNTLFLQMNSLKTEDTAVYYCTTVTMVRGVIADYWGQGTLVTVSS VL: EIVLTQSPGTLSLSPGERATLSCRASQSVSSGSLAWYQQKLGQAPRLLIYGASSRATGIPDRFSGSGSGTDFTLTISSLEPEDFAVYYCQQYGSSRTFGQGTKVELKR next?
## Result 15.5
